Tested on: SK-MEL-5 melanoma
Assay: NCI-60 one-dose screen, 48 h (100 = growth as untreated, 0 = no growth, -100 = all killed)
Settings: 10 µM unless noted
This is part of a sample that, as a whole, favours compounds with a hit. Of some 83,000 tested, about 20% had one in any assay.
QUANTITY: growth (%)
Please give a number only; it is taken to be in %.

Before answering, review these 3 worked examples.
MOLECULE	TEST TARGET	REPORTED
Cc1cc(N2CCCCC2)nc(N(CCNc2ccnc3cc(Cl)ccc23)Cc2ccccn2)n1	SK-MEL-5 melanoma	48.8
Cc1c(C(N)=O)sc2nc(C)n(/N=c3\scc(-c4ccccc4)n3Cc3ccccc3)c(=O)c12	SK-MEL-5 melanoma	7.44
COc1c(C)cnc(CSc2nc(-c3ccc(C)cc3)cn2-c2ccc(Cl)cc2)c1C	SK-MEL-5 melanoma	105

growth lookup needed for C=C1c2c(C)nn(-c3ccc(NC(C)=O)cc3)c2N(C)C23CC1C1(C)c4c(C)nn(-c5ccc(NC(C)=O)cc5)c4N(C)C(C)(CC12)C3 (stereo not given) , thanks.
19.1

What measured growth goes with CC(C)n1nc(C#Cc2cccc(O)c2)c2c(N)ncnc21 ?
-91.8
